Data credit: the kinase profiling compilation of Christmann-Franck et al. (2016)

target: MAPK15 (human); assay: radiometric filter-binding kinase assay; conditions: compound 10.0 µM
Bucketed by reported residual activity, buckets being lower (below 20%), middle (20% to below 90%), upper (90% or more)

CCn1c(-c2nonc2N)nc2cncc(CNC3CCNCC3)c21
middle
CC1=C(CO)C(=O)O[C@@H]([C@@H](C)[C@H]2CC[C@H]3[C@@H]4C[C@H]5O[C@]56[C@@H](O)C=CC(=O)[C@]6(C)C4CC[C@]23C)C1 (stereo partly specified)
middle
O=c1c(O)c(-c2ccc(O)c(O)c2)oc2cc(O)c(O)c(O)c12
middle
C[C@H]1CCCC(=O)CCC/C=C/c2cc(O)cc(O)c2C(=O)O1
middle
N#Cc1c(O)c2c(-c3ccc(-c4ccccc4O)cc3)csc2[nH]c1=O
middle

Where would `O=C(O)c1ccc(-c2c[nH]c3ncc(-c4ccccc4)cc23)cc1C1CCCC1` land among the classes by reported residual activity?
middle

Where would `O=C(N[C@@H](COc1ccc2[nH]c(=O)[nH]c2c1)c1ccccc1)c1cccn(Cc2ccc(F)c(F)c2)c1=O` land among the classes by reported residual activity?
upper

Where would `Oc1ccc(/C=C/c2cc(O)cc(O)c2)cc1` land among the classes by reported residual activity?
lower

* * *

molecular target: MAP4K5 (human) (UniProt Q9Y4K4); assay: radiometric filter-binding kinase assay; settings: compound 1.0 µM
Sequence (Q9Y4K4 whole entry, looked up): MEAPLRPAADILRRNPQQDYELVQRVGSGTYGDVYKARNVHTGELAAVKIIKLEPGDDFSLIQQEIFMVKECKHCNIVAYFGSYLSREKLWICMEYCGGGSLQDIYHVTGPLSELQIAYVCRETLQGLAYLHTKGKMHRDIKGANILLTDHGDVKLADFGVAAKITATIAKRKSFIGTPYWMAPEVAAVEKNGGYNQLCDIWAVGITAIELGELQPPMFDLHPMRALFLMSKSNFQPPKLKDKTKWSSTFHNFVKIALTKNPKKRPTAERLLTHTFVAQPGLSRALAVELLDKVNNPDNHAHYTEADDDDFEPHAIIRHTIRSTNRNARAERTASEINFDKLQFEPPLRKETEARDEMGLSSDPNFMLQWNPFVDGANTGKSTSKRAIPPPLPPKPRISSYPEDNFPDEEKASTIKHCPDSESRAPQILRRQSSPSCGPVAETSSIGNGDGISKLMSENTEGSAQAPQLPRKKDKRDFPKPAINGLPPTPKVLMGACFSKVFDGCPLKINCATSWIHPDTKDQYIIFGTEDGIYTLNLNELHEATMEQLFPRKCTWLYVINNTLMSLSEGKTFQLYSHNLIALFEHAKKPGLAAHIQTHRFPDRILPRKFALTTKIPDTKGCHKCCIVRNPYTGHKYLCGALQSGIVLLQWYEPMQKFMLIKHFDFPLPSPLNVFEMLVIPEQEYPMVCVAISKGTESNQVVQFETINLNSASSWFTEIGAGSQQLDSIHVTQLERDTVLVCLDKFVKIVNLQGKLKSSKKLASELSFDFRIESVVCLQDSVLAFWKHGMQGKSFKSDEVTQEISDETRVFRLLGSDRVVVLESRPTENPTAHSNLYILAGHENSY
Quantity: residual activity (%)
Use % as the unit, but write only the number.

C=C1C(=O)OC2C1CC/C(C)=C/CCC1(C)OC21 (centres undefined)
116
CCn1c(-c2nonc2N)nc2cncc(CNC3CCNCC3)c21
103
COc1cc(C(=O)N2CCOCC2)c(F)cc1Nc1ncc(C(F)(F)F)c(NC2CC2)n1
107

From here, focus on the item given below.
Request the reported residual activity associated with CC1=C(CO)C(=O)O[C@@H]([C@@H](C)[C@H]2CC[C@H]3[C@@H]4C[C@H]5O[C@]56[C@@H](O)C=CC(=O)[C@]6(C)C4CC[C@]23C)C1 (some centres undefined)
110

* * *

Listed here are compounds together with their documented residual activity.
molecular target: CSNK1G2 (human) (UniProt P78368); assay: radiometric filter-binding kinase assay; details: compound 1.0 µM
Sequence (P78368 whole entry, looked up): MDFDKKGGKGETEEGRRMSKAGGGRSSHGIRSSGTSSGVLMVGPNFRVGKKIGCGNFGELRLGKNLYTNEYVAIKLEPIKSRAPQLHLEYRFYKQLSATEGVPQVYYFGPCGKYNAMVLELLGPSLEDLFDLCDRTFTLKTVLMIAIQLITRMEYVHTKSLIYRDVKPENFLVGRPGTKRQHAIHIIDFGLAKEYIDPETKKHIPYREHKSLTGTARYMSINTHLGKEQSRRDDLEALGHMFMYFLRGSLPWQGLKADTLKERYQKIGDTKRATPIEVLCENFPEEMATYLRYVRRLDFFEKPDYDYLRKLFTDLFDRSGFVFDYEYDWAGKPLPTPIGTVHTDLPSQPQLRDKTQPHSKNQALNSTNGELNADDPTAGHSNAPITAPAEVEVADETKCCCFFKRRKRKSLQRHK
Use % as the unit, but write only the number.

CNc1nc(-c2ccc3c(N)n[nH]c3c2)cc(N2C[C@@H](C(=O)NC3CCCCC3)CC[C@H]2C)n1
101
CCn1c(-c2nonc2N)nc2cncc(CNC3CCNCC3)c21
92
CNC(=O)C1[C@H]2O[C@@](C)([C@@H]1N)n1c3ccccc3c3c4c(c5c6ccccc6n2c5c31)C(=O)NC4 (some centres undefined)
86

From here, focus on the item given below.
Request the reported residual activity associated with `CCNc1nc(Nc2cc(F)c(C(=O)N3CCOCC3)cc2OC)ncc1C(F)(F)F`
91

* * *

target: TSSK1B (human) (UniProt Q9BXA7); experiment: radiometric filter-binding kinase assay; conditions: compound 1.0 µM
Sequence (Q9BXA7 whole entry, looked up): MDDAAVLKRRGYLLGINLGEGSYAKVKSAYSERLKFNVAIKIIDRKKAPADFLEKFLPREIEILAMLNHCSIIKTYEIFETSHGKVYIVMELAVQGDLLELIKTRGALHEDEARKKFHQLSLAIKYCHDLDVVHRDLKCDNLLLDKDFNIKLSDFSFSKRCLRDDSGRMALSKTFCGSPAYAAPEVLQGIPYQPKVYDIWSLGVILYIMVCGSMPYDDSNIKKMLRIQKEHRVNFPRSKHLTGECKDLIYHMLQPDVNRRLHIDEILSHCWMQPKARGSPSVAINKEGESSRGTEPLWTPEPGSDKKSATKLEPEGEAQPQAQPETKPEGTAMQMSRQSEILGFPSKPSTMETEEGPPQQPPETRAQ
Listed here are compounds together with their documented residual activity.
Use % as the unit, but write only the number.

Request the reported residual activity associated with `Cc1ccc(=O)n(-c2ccccc2)c1`
87

Request the reported residual activity associated with `C=CC(=O)N1CCC[C@@H](n2nc(-c3ccc(Oc4ccccc4)cc3)c3c(N)ncnc32)C1`
108

Request the reported residual activity associated with CC1=C(CO)C(=O)O[C@@H]([C@@H](C)[C@H]2CC[C@H]3[C@@H]4C[C@H]5O[C@]56[C@@H](O)C=CC(=O)[C@]6(C)C4CC[C@]23C)C1 (some centres undefined)
102

Request the reported residual activity associated with `COc1ccc(-n2ncc3cnc(Nc4cc(OC)c(OC)c(OCCCN5CCN(C)CC5)c4)nc32)cc1`
5
